Tested Target: T1, cynomolgus LAG3 on transiently transfected HEK293F cells (cynomolgus)
T1 construct: whole, on cells; also called cyno LAG3; cynomolgus Lag3-positive HEK cells
Assay Name: flow cytometry on HEK293F cells transfected with cyno LAG3, 10 µg/ml
Observable: LAG3 positive cells (%)
Your answer should be a plain number; it is taken to be in %.

// query Supply LAG3 positive cells (%) value. Item: bivalent 19G3 aVH-Fc (Fc fusion) EVQLVESGGGLVQPGGSLRLSCAASGFNIKYQCIGWVRRAPGKGTELVAEICSYDGYTRYADSVKGRFTISADTSKNTAYLQMNSLRAEDTAVYYCAAEESVEGFIYWGQGTTVTVSSGGGGSGGGGSDKTHTCPPCPAPEAAGGPSVFLFPPKPKDTLMISRTPEVTCVVVDVSHEDPEVKFNWYVDGVEVHNAKTKPREEQYNSTYRVVSVLTVLHQDWLNGKEYKCKVSNKALGAPIEKTISKAKGQPREPQVYTLPPSRDELTKNQVSLTCLVKGFYPSDIAVEWESNGQPENNYKTTPPVLDSDGSFFLYSKLTVDKSRWQQGNVFSCSVMHEALHNHYTQKSLSLSPGK
// result 80.3
